Tested on: UACC-62 melanoma
measurement protocol: NCI-60 one-dose screen, 48 h (100 = growth as untreated, 0 = no growth, -100 = all killed)
measurement setup: 10 µM unless noted
Compounds without any hit were thinned out: in the full panel of roughly 83,000, 20% have a hit.
Entries annotated with measured growth
Give a bare numeral; the unit % is implied.

Inquiry: Please give the documented growth of CC1=NN(c2ccc(S(=O)(=O)O)cc2)C(=O)C1N=Nc1ccc(-c2ccc(N=Nc3ccc(OS(=O)(=O)c4ccc(C)cc4)cc3)c(S(=O)(=O)O)c2)cc1 (stereo not drawn)
Reply text: 92

Inquiry: Entry Cc1c(C(=O)N[C@@H](Cc2ccccc2)C(=O)C(=O)NCc2ccc(F)cc2)[nH]c2ccccc2c1=O needs its growth filled in; supply it.
Reply text: 91.7

Inquiry: Using the record for O=[N+]([O-])c1ccccc1NCSc1ccc(Cl)cc1 , state its measured growth.
Reply text: 89.2

---

Examples of compounds with documented growth follow.
Tested on: RPMI-8226 leukemia
measurement protocol: NCI-60 one-dose screen, 48 h (100 = growth as untreated, 0 = no growth, -100 = all killed)
measurement setup: 10 µM unless noted
About 83,000 compounds went through this panel and 20% of them were active in at least one assay; those are over-represented in the sample as a whole.
Value expressed in %; do not type the unit.

Below: 3 compounds and their reported growth.
- compound: "Cc1ccc(-c2nc(SCC(=O)Nc3nc(-c4ccc(Cl)cc4)cs3)[nH]c(=O)c2C#N)cc1"
  unit of measurement: "%"
  growth: 103
- compound: "Cc1cc2nc3ccc(N=Nc4ccc(N(C)C)cc4)cc3n(-c3ccccc3)c-2cc1=N"
  unit of measurement: "%"
  growth: -63.5
- compound: "COc1nc2ccccc2cc1-c1nc2c(cnn2-c2ccc(Br)cc2)c(=O)[nH]1"
  unit of measurement: "%"
  growth: 20.7

Inquiry: Tell us which growth value is on record for COc1cc(C(=O)c2cnc(-c3c[nH]c4cccc(C)c34)[nH]2)cc(OC)c1OC
Reply text: 10

---

System: HT29 colon
measurement protocol: NCI-60 one-dose screen, 48 h
measurement setup: 10 µM unless noted
This is part of a sample that, as a whole, favours compounds with a hit. Of some 83,000 tested, about 20% had one in any assay. Activity calls are given as the source filed them. How the source made its calls: active means growth percent below 10; inactive means the rest.
I would appreciate it if you answered using one of these outcomes: true (1) for active, false (0) for inactive

Use these answered entries as a reference point.
- compound: "CC(=O)OC[C@H]1OC(Sc2sc(C(=O)c3ccc(Cl)cc3)c(N)c2-c2nc3ccccc3s2)[C@H](OC(C)=O)[C@@H](OC(C)=O)[C@@H]1OC(C)=O (some centres undefined)"
  cat: "false (0)"
- compound: "COc1ccc(-c2csc(NC(=O)N3CCN(c4cc5c(cc4F)c(=O)c(C(=O)O)cn5C4CC4)CC3)n2)cc1"
  cat: "true (1)"
- compound: "CCCCNC(=O)Oc1ccc(/C(=C(\\C)c2ccc(Cl)cc2)c2ccc(OCCN3CCCCC3)cc2)cc1"
  cat: "false (0)"
- compound: "CCc1cccc2c3c(sc12)C(c1ccc(F)cc1)C(C#N)=C(N)O3 (centres undefined)"
  cat: "false (0)"
- compound: "COc1ccc(-c2nc(NN)c3c(C)nn(-c4ccc(F)cc4)c3n2)cc1"
  cat: "true (1)"

Inquiry: What outcome does the record of this test show for COc1ccc2[nH]c(-c3ccccc3)c(/C=C(\C#N)S(=O)(=O)c3ccccc3)c2c1 ?
Reply text: false (0)

Inquiry: Entry Nc1nc(-c2cccc3ccccc23)cc2ccccc12 : call = ?
Reply text: true (1)

Inquiry: Which outcome was assigned to CCCCCCCCCCCCCCCCCCOc1ccccc1CC(=O)OCC[N+](CC)(CC)CC in this test?
Reply text: false (0)

Inquiry: What call does the record list for CCCCCCn1c(-c2ccc(C(=O)O/N=C(\N)c3ccc4ccccc4c3)cc2)nc(-c2ccccc2)c1-c1ccccc1 ?
Reply text: false (0)

Inquiry: Record lookup: outcome of this test for CC1Cc2ccccc2N1NC(=O)c1ccc(Cl)c(S(N)(=O)=O)c1 (centres undefined) ?
Reply text: false (0)

Inquiry: Test call for this compound, please: O=C(Nc1ccc(OS(=O)(=O)c2ccc(F)cc2)cc1)c1ccc(Cl)cc1
Reply text: false (0)

Inquiry: For this compound, state the assay outcome: C/C(=C(/c1ccccc1)c1ccc(N2C(=O)c3cccc4c(N5CCN(C)CC5)ccc(c34)C2=O)cc1)c1ccccc1
Reply text: false (0)

Inquiry: So what was the verdict on CCc1ccc(Oc2c(-c3ccc(OCCc4cccc(C(F)(F)F)c4)cc3O)n[nH]c2C(F)(F)F)cc1 in this test?
Reply text: false (0)

Inquiry: Lab log entry: O=C(Nc1ccc(Cl)cc1F)c1cc(Cl)ccc1O — outcome as called in the assay?
Reply text: false (0)

Inquiry: Which result was noted for this compound in the test: COc1ccc(-c2cc(-c3cc(OC)c(OC)c(OC)c3)nc(N3CCOCC3)c2C#N)cc1
Reply text: false (0)

Inquiry: # outcome recorded in this test, key = Cc1ccc(C(=O)N/N=C/c2cccc([N+](=O)[O-])c2)cn1
Reply text: false (0)

Inquiry: Record request — test call for COc1ccc(C(=S)N2CCN(c3cccc(C)c3)CC2)cc1OC
Reply text: false (0)

Inquiry: GET /call?item= N#C/C(=C\c1ccc(F)cc1)n1nc2cccc(F)c2n1 returns the recorded outcome of this test.
Reply text: false (0)

Inquiry: Just curious, what result did CCOc1ccc2nc(SCc3nc4n(n3)S(=O)(=O)c3ccccc3N4C)sc2c1 get here?
Reply text: false (0)
